- Measurement description: ATG_RORE_CIS: Attagene CIS-FACTORIAL HepG2 Assay for human RAR-related Orphan Receptor Element (RORE) (AID 2282959)
- Test settings: HepG2 Attagene cis-factorial RORE reporter, mRNA; actives raise or lower the signal
Activity calls are given as the source filed them. Rule for the calls: active = hit-call score of the fitted dose curve at least 0.9, where 1 is the maximum; inactive = score below 0.9.
Outcome codes: active, inactive

In [3]: df
Out[3]:
                                   compound  answer_label
0                                  CN(C)C=O      inactive
1  COc1cc(CCC(=O)CC(=O)CCc2ccc(O)c(OC)c2)ccc1O      inactive
2  Cc1cc(CCN2CCN(c3nsc4ccccc34)CC2)cc2c1NC(=O)CC2(C)C        active
3        COCC(C)OCC(C)O (centres undefined)      inactive

====

- Measurement description: APR_HepG2_MicrotubuleCSK_72hr: Apredica 72-hour HepG2 Assay for Microtubule CSK Stabilty (AID 2282919)
- Test settings: HepG2 microtubule cytoskeleton, high-content imaging, actives raise or lower the signal
Active and inactive are the calls of the source. How the source made its calls: active means hit-call score of the fitted dose curve at least 0.9, where 1 is the maximum; inactive means score below 0.9.
Outcome codes: true for active, false for inactive

                                    compound  answer_label
 0  CC[C@H](c1ccc(O)cc1)[C@@H](CC)c1ccc(O)cc1         false
 1                              Oc1cccc(O)c1         false
 2  OCCC(F)(F)C(F)(F)C(F)(F)C(F)(F)C(F)(F)C(F)(F)F         false
 3  Cc1cc(CCN2CCN(c3nsc4ccccc34)CC2)cc2c1NC(=O)CC2(C)C          true
 4      CCCCC[C@H](O)CC(=O)CCc1ccc(O)c(OC)c1         false
 5  N#C[C@@H]1CC(F)(F)CN1C(=O)CNC1CC2CCC(C1)N2c1ncccn1 (stereo not given in full)         false
 6  C=C(C)C(=O)OCCC(F)(F)C(F)(F)C(F)(F)C(F)(F)C(F)(F)C(F)(F)F         false
 7             ClC1=C(Cl)C(Cl)(Cl)C(Cl)=C1Cl         false
 8                              CCCCCCC(=O)O         false
 9    CC(C)CCCCCCOC(=O)CCCCC(=O)OCCCCCCC(C)C         false
10  CC1=C(/C=C/C(C)=C/C=C/C(C)=C/C(=O)O)C(C)(C)CCC1         false
11  NC(=O)N1C(=O)C(C(=O)c2cc(Cl)cs2)c2cc(F)c(Cl)cc21 (stereo not given)          true
12                            CCCCCCCCC(=O)O         false
13                 COc1ccc([N+](=O)[O-])cc1N         false
14         CCCCCCCCCCCCCCCS(=O)(=O)Oc1ccccc1         false

====

- Assay target: Bile acid receptor (Homo sapiens) (UniProt Q96RI1)
- Sequence (Q96RI1 whole entry, looked up): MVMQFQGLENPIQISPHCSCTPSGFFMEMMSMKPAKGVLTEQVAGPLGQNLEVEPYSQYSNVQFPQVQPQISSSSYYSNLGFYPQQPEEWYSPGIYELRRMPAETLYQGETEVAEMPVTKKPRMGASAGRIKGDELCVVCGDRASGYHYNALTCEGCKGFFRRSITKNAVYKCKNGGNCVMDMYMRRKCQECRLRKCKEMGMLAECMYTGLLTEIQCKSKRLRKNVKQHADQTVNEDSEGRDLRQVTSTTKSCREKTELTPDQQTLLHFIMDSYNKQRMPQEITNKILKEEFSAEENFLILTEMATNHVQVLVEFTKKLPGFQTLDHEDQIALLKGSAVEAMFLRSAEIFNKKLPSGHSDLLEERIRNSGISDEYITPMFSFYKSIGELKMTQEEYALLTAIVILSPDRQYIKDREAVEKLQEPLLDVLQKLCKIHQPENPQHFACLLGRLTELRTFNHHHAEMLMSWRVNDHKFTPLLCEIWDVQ
- Measurement description: ATG_IR1_CIS: Attagene CIS-FACTORIAL HepG2 Assay for human Nuclear Receptor Subfamily 1 Group H Member 4 (NR1H4), IR1 submotif (AID 2282946)
- Test settings: IR1 reporter transcription, actives raise or lower the signal
Active and inactive are the calls of the source. How the source made its calls: active means hit-call score of the fitted dose curve at least 0.9, where 1 is the maximum; inactive means score below 0.9.
Outcome codes: active, inactive

>>> df
                                   compound  answer_label
0         O=C(OCCOCCOC(=O)c1ccccc1)c1ccccc1      inactive
1  NC(=O)N1C(=O)C(C(=O)c2cc(Cl)cs2)c2cc(F)c(Cl)cc21 (stereo not drawn)      inactive
2  CCN(CC)CCNc1ccc(CNC=O)c2sc3ccc(OC)cc3c(=O)c12        active

====

- Read-out: Human Leukocyte Antigen - DR isotype (HLADR), HLA-DRA (gene 3122)
- Measurement description: BSK_3C_HLADR: BioMAP Diversity Plus: 3C Assay for Human Leukocyte Antigen - DR isotype (HLADR) Biomarker Activity (AID 2283019)
- Test settings: primary human endothelial cells (HUVEC); actives raise or lower the signal
Activity calls are given as the source filed them. How the source made its calls: active means hit-call score of the fitted dose curve at least 0.9, where 1 is the maximum; inactive means score below 0.9.
Parameter: AC50

>>> print(df.to_string())
                                    compound  parameter            result
 0              CC(O)CO (stereo unspecified)       AC50          inactive
 1             CC(C)(C)c1ccc(O)c(C(C)(C)C)c1       AC50  8.06 µM (active)
 2  CCCOc1sc(C(=O)N2CCC(c3cc(CN)ccc3F)CC2)c(C)c1Br       AC50  7.77 µM (active)
 3                                  CN(C)C=O       AC50          inactive
 4                        Nc1cccc2c(N)cccc12       AC50          inactive
 5                    c1ccc2c(c1)Cc1ccccc1-2       AC50          inactive
 6  CCCCC(CC)COC(=O)CCCCC(=O)OCC(CC)CCCC (stereo unspecified)       AC50          inactive
 7      CCCCCCCCOC(=O)CCCCCCCCC(=O)OCCCCCCCC       AC50          inactive
 8  CCc1ccc(CCOc2ccc(CC3SC(=O)NC3=O)cc2)nc1 (stereo unspecified)       AC50          inactive
 9                                 OC1CCCCC1       AC50          inactive
10             ClC1=C(Cl)C(Cl)(Cl)C(Cl)=C1Cl       AC50   4.6 µM (active)

====

- Read-out: Forkhead box O3 (FOXO3), FOXO3 (gene 2309)
- Measurement description: LTEA_HepaRG_FOXO3: Life Technologies and Expression Analysis (LTEA) Assay for Forkhead box O3 (FOXO3) using HepaRG (AID 2283459)
- Test settings: mRNA level, 48 h; actives raise or lower the signal
Activity calls are given as the source filed them. Rule for the calls: active = hit-call score of the fitted dose curve at least 0.9, where 1 is the maximum; inactive = score below 0.9.
Classes used: yes (1) for active, no (0) for inactive

>>> print(df.to_string())
                                    compound  answer_label
 0                        Cc1cc(C)c(O)c(C)c1        no (0)
 1   CC[C@H](C)[C@@H](C(=O)O)n1sc2ccccc2c1=O        no (0)
 2      CCCCCCCCOC(=O)CCCCCCCCC(=O)OCCCCCCCC        no (0)
 3  C#C[C@]1(O)CC[C@H]2[C@@H]3CCC4=CC(=O)CC[C@@H]4[C@H]3CC[C@@]21C        no (0)
 4                                 OC1CCCCC1        no (0)
 5  OCCC(F)(F)C(F)(F)C(F)(F)C(F)(F)C(F)(F)C(F)(F)F        no (0)
 6  N#C[C@@H]1CC(F)(F)CN1C(=O)CNC1CC2CCC(C1)N2c1ncccn1 (stereo partly specified)        no (0)
 7  CC(C)(C)CC(C)(C)c1ccc(O)c(-n2nc3ccccc3n2)c1        no (0)
 8  CCCOc1sc(C(=O)N2CCC(c3cc(CN)ccc3F)CC2)c(C)c1Br        no (0)
 9            CCCCCCCCCCCCc1ccccc1S(=O)(=O)O       yes (1)
10  OCCC(F)(F)C(F)(F)C(F)(F)C(F)(F)C(F)(F)C(F)(F)C(F)(F)C(F)(F)F        no (0)
11  CC[C@H](c1ccc(O)cc1)[C@@H](CC)c1ccc(O)cc1        no (0)
12             COCC(C)O (stereo unspecified)        no (0)
13  CCCCC(CC)COC(=O)CCCCC(=O)OCc1ccccc1 (stereo unspecified)        no (0)
14             ClC1=C(Cl)C(Cl)(Cl)C(Cl)=C1Cl        no (0)
15  CCC(=C(c1ccc(O)cc1)c1ccc(OCCN(C)C)cc1)c1ccccc1        no (0)
16                             CCCCCCCC(=O)O        no (0)
17                            CCCCCCCCC(=O)O        no (0)
18  CC(=O)NC1(c2cccc(F)c2)CCN(CC[C@@]2(c3ccc(Cl)c(Cl)c3)CN(c3ccccc3)C(=O)CO2)CC1        no (0)
19                        COC(=O)CCCCC(=O)OC        no (0)
20  CCc1nn(C2CCCCC2)c2cc(C3(C#N)CCC(C(=O)O)CC3)ccc12 (stereo unspecified)        no (0)
21                           CC(=O)CC(C)(C)O        no (0)
22       COCC(C)OCC(C)O (stereo unspecified)        no (0)
23  NC(=O)N1C(=O)C(C(=O)c2cc(Cl)cs2)c2cc(F)c(Cl)cc21 (stereo unspecified)       yes (1)
24                        Nc1cccc2c(N)cccc12       yes (1)
25         CCCCCCCCCCCCCCCS(=O)(=O)Oc1ccccc1        no (0)

Hello, the source for this data is PubChem BioAssay (EPA / NIEHS), in case you need it.
